This collection of values is drawn from PubChem BioAssay AID1159580.

assay: chemical genetic growth profiling, strain panel (AID 1159580);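 note: tested at 20 µM; growth read once vehicle control cultures reached saturation at 30 °C; 1 = growth at the plate median or of vehicle wells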; settings: S. cerevisiae deletion strains, growth OD, locus YLL026W, active compounds read low
The whole screen tested about 5,500 compounds, of which about 2,000 (36%) were called active. About 18% were inconclusive and are not listed. The list shows a part of the results.
Simple rule here: normalized growth less than 1 is T, otherwise F.

Exercise: Report whether reported normalized growth is lower than 1 (strictly) for `CC(=O)[O][Hg][c]1ccccc1`
Solution: T

Exercise: Let us now turn to C[C@]12CCC3C(CC[C@H]4C[C@H](OS(=O)(=O)O)CC[C@]34C)C1CCC2=O (stereo partly specified)
Solution: F

Exercise: Let us now turn to `O=c1oc2c(O)c(O)cc3c(=O)oc4c(O)c(O)cc1c4c23`
Solution: T

Exercise: Let us now turn to `CC1(C)C=Cc2cc3ccc(=O)oc3cc2O1`
Solution: T

###

test: chemical genetic growth profiling, strain panel (AID 1159580); conditions: S. cerevisiae strains, growth OD, strain wild type, active compounds read low
Among all 5,500 compounds or so, about 2,000 (36%) were called active. Inconclusive results (about 18%) are left out. Some of the results follow.
In this section we review reported normalized growth values for a set of compounds.
Answer with a bare number; do not write a unit.

Example cases with answers are listed next.
Cc1onc(-c2c(Cl)cccc2Cl)c1C(=O)N[C@@H]1C(=O)N2[C@@H]1SC(C)(C)[C@@H]2C(=O)O ... 1.02
CC(=O)OCC(=O)[C@@]1(O)CCC2C3CC[C@@H]4C[C@H](OC(C)=O)CC[C@]4(C)C3C(=O)C[C@@]21C (stereo not given in full) ... 0.986

Exercise: Item under review: `O=C(O)c1cc(=O)c2c(Cl)cc(Cl)cc2[nH]1` . Reported normalized growth?
Solution: 1

Exercise: Let us now turn to `COc1cccc(OC)c1C(=O)N[C@@H]1C(=O)N2[C@@H]1SC(C)(C)[C@@H]2C(=O)O`
Solution: 1

Exercise: Let us now turn to `Cc1onc(-c2ccccc2Cl)c1C(=O)N[C@@H]1C(=O)N2[C@@H]1SC(C)(C)[C@@H]2C(=O)O`
Solution: 1.01

Exercise: Let us now turn to `CC1(C)S[C@@H]2[C@H](NC(=O)Cc3ccccc3)C(=O)N2[C@H]1C(=O)O`
Solution: 1

Exercise: Let us now turn to `CCOc1ccc(NC(C)=O)cc1`
Solution: 0.992

Exercise: Let us now turn to CC(=O)O[C@H]1CC[C@]2(C)C3CC[C@@]4(C)C(CC5O[C@@]6(CCC(C)CO6)[C@@H](C)C54)C3CC[C@H]2C1 (stereo not given in full)
Solution: 1.02

###

assay: chemical genetic growth profiling, strain panel (AID 1159580); details: S. cerevisiae deletion strains, growth OD, locus YBR171W, strain sec66, active compounds read low
About 2,000 (36%) of roughly 5,500 compounds were called active. Inconclusive results (about 18%) are left out. This is one part of the list.
In this section we review reported normalized growth values for a set of compounds.

c1ccc([C@H]2CN3CCSC3=N2)cc1 ... 1.02 (inactive)
Cc1onc(-c2ccccc2Cl)c1C(=O)N[C@@H]1C(=O)N2[C@@H]1SC(C)(C)[C@@H]2C(=O)O ... 1.03 (inactive)
COc1ccc(C(=O)c2ccccc2)c(O)c1O ... 0.945 (inactive)

Alright, here's another compound for you.
Exercise: Item under review: `Cc1cc(C(C)(C)C)c(O)c(C)c1CC1=NCCN1` . Reported normalized growth?
Solution: 1.02 (inactive)

###

In this section we review reported normalized growth values for a set of molecules.
test: chemical genetic growth profiling, strain panel (AID 1159580); settings: S. cerevisiae deletion strains, growth OD, locus YGL253W, strain hxk2, active compounds read low
The campaign covered roughly 5,500 compounds. About 2,000 (36%) were called active. Roughly 18% stayed inconclusive and do not appear here. This is one part of the list.
Answer with a bare number; do not write a unit.

Example cases with answers are listed next.
CC(=O)[O][Hg][c]1ccccc1 ... 0.055
COc1ccc(C(=O)c2ccc(O)cc2)c(O)c1O ... 0.984
NCCNCCNCCN ... 0.994

Exercise: Item under review: `CCOc1ccc(NC(C)=O)cc1` . Reported normalized growth?
Solution: 1.01

###

test: chemical genetic growth profiling, strain panel (AID 1159580); conditions: S. cerevisiae deletion strains, growth OD, locus YER155C, strain BEM2 (second series), active compounds read low
In all, about 5,500 compounds went through this assay and about 2,000 (36%) were called active. Not shown: some 18% with an inconclusive outcome. Some of the results follow.
In this section we review reported normalized growth values for a set of compounds.
Answer with a bare number; do not write a unit.

CO[C@H]1C[C@H](O[C@H]2[C@H](C)[C@@H](OC3O[C@H](C)C[C@H](N(C)C)[C@H]3OC(C)=O)[C@@H](C)C[C@]3(CO3)C(=O)[C@H](C)[C@@H](OC(C)=O)[C@@H](C)[C@@H](C)OC(=O)[C@@H]2C)O[C@@H](C)[C@@H]1OC(C)=O (stereo partly specified) ... 0.994
CCOc1ccc(C(=O)c2cc(O)c(OC)c(OC)c2O)cc1 ... 0.734
COc1c2c(cc3c1OCO3)C13C=C[C@H](OC)CC1N(C2)CC3O (stereo partly specified) ... 1.05
O=C(NC1CCCCC1)NC1CCCCC1 ... 0.971
CNC(Cc1c[nH]c2ccccc12)C(=O)O (stereo unspecified) ... 0.996

Exercise: Item under review: `CCOc1cccc(C(=O)c2ccc(O)c(O)c2O)c1` . Reported normalized growth?
Solution: 0.847

Exercise: Let us now turn to `CNS(=O)(=O)c1ccc(NC(=O)c2ccccc2C(=O)O)cc1`
Solution: 1

###

experiment: chemical genetic growth profiling, strain panel (AID 1159580);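 note: tested at 20 µM; growth read once vehicle control cultures reached saturation at 30 °C; 1 = growth at the plate median or of vehicle wells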; conditions: S. cerevisiae deletion strains, growth OD, locus YKL203C, strain TOR2, active compounds read low
Out of some 5,500 compounds screened, about 2,000 (36%) were called active. Not shown: some 18% with an inconclusive outcome. The list shows a part of the results.
In this section we review reported normalized growth values for a set of compounds.
Answer with a bare number; do not write a unit.

Example cases with answers are listed next.
CN1c2ccccc2C(C)(C)C12C=Cc1cc(O)ccc1O2 (centres undefined) ... 1.05
C/C(=N/NC(=O)c1ccc(C(C)(C)C)cc1)c1ccccc1O ... 1.01
COc1cc(N2C(=O)C=CC2=O)cc(OC)c1OC ... 0.357

Alright, here's another compound for you.
Exercise: Item under review: `O=c1c(-c2ccccc2)c(O)c2cccc3c4c(n1c23)CCCC4` . Reported normalized growth?
Solution: 0.283

###

experiment: chemical genetic growth profiling, strain panel (AID 1159580);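 note: tested at 20 µM; growth read once vehicle control cultures reached saturation at 30 °C; 1 = growth at the plate median or of vehicle wells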; conditions: S. cerevisiae deletion strains, growth OD, locus YNL248C, strain rpa49, active compounds read low
Screen size: about 5,500 compounds; about 2,000 (36%) were called active. Another 18% or so got no clear call; they are omitted. The list shows a part of the results.
property_name: normalized growth

Example cases with answers are listed next.
CC(=O)O[C@H]1CC[C@]2(C)C3CC[C@@]4(C)C(CC5O[C@@]6(CCC(C)CO6)[C@@H](C)C54)C3CC[C@@H]2C1 (some centres undefined) ... 1.02 (inactive)
CCOc1ccc(C(=O)c2ccc(O)c(O)c2O)cc1 ... 0.98 (inactive)
CCOc1ccc(C(=O)c2ccc(OC)c(O)c2O)cc1 ... 1.03 (inactive)
CN1C(=O)CCS(=O)(=O)C1c1ccc(Cl)cc1 (centres undefined) ... 1.03 (inactive)
CCOc1ccc(NC(C)=O)cc1 ... 1.02 (inactive)

Exercise: Item under review: `O=C(CCBr)N1CCN(C(=O)CCBr)CC1` . Reported normalized growth?
Solution: 1.01 (inactive)

Exercise: Let us now turn to CC1=CC2C(C(C)C)CCC(C)(O)C2CC1 (centres undefined)
Solution: 1.03 (inactive)

Exercise: Let us now turn to CC(=O)O[C@H]1CC[C@]2(C)C3CC(=O)[C@]4(C)C(C(C)=O)=CCC4C3CC[C@H]2C1 (some centres undefined)
Solution: 0.984 (inactive)

Exercise: Let us now turn to CC(=O)O[C@@H]1CC[C@]2(C)C3CC[C@]4(C)C(=O)CCC4C3CC[C@H]2C1 (some centres undefined)
Solution: 0.963 (inactive)

###

assay: chemical genetic growth profiling, strain panel (AID 1159580);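 note: tested at 20 µM; growth read once vehicle control cultures reached saturation at 30 °C; 1 = growth at the plate median or of vehicle wells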; details: S. cerevisiae deletion strains, growth OD, locus YDR502C, strain sam2, active compounds read low
The whole screen tested about 5,500 compounds, of which about 2,000 (36%) were called active. Roughly 18% stayed inconclusive and do not appear here. This is one part of the list.
Simple rule here: normalized growth less than 1 is Satisfied, otherwise Not satisfied.

Use the examples below as a reference point.
O=c1c(O)c(-c2ccc(O)c(O)c2)oc2cc(O)ccc12 ... Satisfied
COc1ccc(C(=O)c2ccc(O)cc2)c(O)c1O ... Satisfied
O=c1oc2c(O)c(O)cc3c(=O)oc4c(O)c(O)cc1c4c23 ... Satisfied

Exercise: Report whether reported normalized growth is lower than 1 (strictly) for `O=C(OC[C@H]1O[C@H](OC(=O)c2cc(O)c(O)c(OC(=O)c3cc(O)c(O)c(O)c3)c2)[C@H](OC(=O)c2cc(O)c(O)c(OC(=O)c3cc(O)c(O)c(O)c3)c2)[C@@H](OC(=O)c2cc(O)c(O)c(OC(=O)c3cc(O)c(O)c(O)c3)c2)[C@@H]1OC(=O)c1cc(O)c(O)c(OC(=O)c2cc(O)c(O)c(O)c2)c1)c1cc(O)c(O)c(OC(=O)c2cc(O)c(O)c(O)c2)c1`
Solution: Satisfied

Exercise: Let us now turn to CC(=O)OCC1=C(C(=O)O)N2C(=O)[C@@H](NC(=O)CCCC(N)C(=O)O)C2SC1 (stereo partly specified)
Solution: Not satisfied
